The sequences listed here are annotated with their protease stability score.
# assay_summary: protease stability score; higher = more stable; yeast display proteolysis, trypsin and chymotrypsin;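 note: relative to predicted unfolded state with 0 unfolded-like and 1 meaning tenfold more protease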
Answer field: number only, no words.

Worked examples follow.
>>> numeric_result("DQEEQDIRRAIRLYLELLLTGDWKTLEKLIDPNVRLNFNGQEYHGMRDVLRLLKEILEELGIKHVHLHDERIQGDKVKVDTRVEINGKHSEVILVAEKINGKWVVHHLEHNHK")
1.24
>>> numeric_result("SEEEKILKEIAHLLIRSLITGDWKILRDLMDPHTKIHILQGDKVHNFHGWKAMTETLKQKLDRIDHVNFELRHMEVFDGRVHIEGVLHLNFDGQERFTEVRIIVVVIDGKLKEFELRIH")
2.16
>>> numeric_result("HDRNEIIREALRILIHSILTGDEDHLREFADPHVKSDINGQEFHGREVFFMWLLHMRIQTVTIKHVDVQGEKARVYSSIHGDVDGQRTEYHTEIFSQKVNGRWIIRTIRVE")
1.16
>>> numeric_result("SHLEEHLKENLKREEEARRTGDFRFFSRLADPHVKIIINGVELHGMETYNEHWRQIWHDSHHMEITSIDVQGDKIEADIRIIEHGRINGVRESIVLTVRLRFEKINGRWVLTMIIIE")
0.077

Can you share its protease stability score? I mean this sequence: SDEEDTLESVYKLLEHIERTGDWRIWKELADPNVRVELHVNGVEITDHGREAVERLMLKFGVDHIHFKDFDHRTYNGVVHIQEDIVLNINGREIRTKREISADKVNGKWVFRSVRMKID 1.69

###

# assay_summary: protease stability score; higher = more stable; yeast display proteolysis, trypsin and chymotrypsin;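 note: relative to predicted unfolded state with 0 unfolded-like and 1 meaning tenfold more protease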
reported_endpoint: protease stability score

Can you share its protease stability score? I mean this sequence: DEDRHYIEQALEILEHNIQTGNWEIIARLLDPNMRLHIGDKDIHGREESADIIRHWIHRFPNLRVRIDHFEIYGNKVIFRGTMDFDGQRHDISIFSHKVNGRWLIKSIEYR 1.59

Can you share its protease stability score? I mean this sequence: DEIEHHDRIIHHLTLHAFFTGDESITEHLADPDVRLDIVQGDKFNHVIGREMVVQWLEEWWRRVKNARFRVHRVEVINGQVNLRVEVDINGKRVDFTLIIIVIDGKIRSQEVIFH 1.67

Can you share its protease stability score? I mean this sequence: DESERDFRRALEIMHKVVETGNWEEAKRMFDPHVLLDVNGVLIHGREVIIKYVERIDHIRFHHDLKRIETQGDKIYADVHEDLDISINGKTIHIRTRVHIISQKYDGRWLNTEHKVE 0.548

Can you share its protease stability score? I mean this sequence: HEDEQLAREFVEHLTENLRTGNEERIAELADPHVRVDIGDKHLHGWEWLRRRVRELRFHDLIIHHVEVIDGRIIFRGRMDGRVNGRHTQTEVRVELDKIDGRWTIRHIEIR 2.01

Can you share its protease stability score? I mean this sequence: DETKDDSDWAVELWEKLFKTGDEHLHERLADPHTRKEVGDKEFHGRELILKQFVEFVEKVKNIQLEFTHVKEQGEKVEMDTTLRIDGVRIRTKMIALKIDGVWLVKIIHIE 0.964

Can you share its protease stability score? I mean this sequence: REEEKLWEHIFHLFIEDVLTGDEDRLREMLDPNVRLKAEGHDDHGRESMVKFNEELHKEIRFERIHLRRIHIIDGVSFMDVQIDGTVNGKHRSLESEIRIYIVDGRIRMVELRIR 1.25

Can you share its protease stability score? I mean this sequence: DEDKESTDKMLELMLHLIKTGDFEIFEHLFDPNVRVNVGDKERVGWKEALKFRRQWRLHHMEVRDVHKVGDKMHVDSRIDGSVNGVREEDRTEIILVKYDGRWFITSIEFH 0.99

Can you share its protease stability score? I mean this sequence: HEEERHREEIMERLLTAIKTGDPKITRELIDPHTRIEIGDKNLHGMEIWLKYIHTLFEKFPNLTLRIEDSHAQGEKFIIVIRLRFDGREVNLVLYYTIVNGRIKTIEIEEK 1.43

Can you share its protease stability score? I mean this sequence: DERDESLKNIFELLERILETGDEDDSSKLADPHTRMHWNGKELHGRELYADLFDRLLRELGVDHVRLKIHEVRIQGDKIRMDGTLHLIQGDKEERRRVHLVAHKINGRWHIKQVSIN 1.26

Can you share its protease stability score? I mean this sequence: DDEKARQQVREFIRAMETGDEDSMVQQLDENAHVHIGDHVWRGREQARNAFKEFVKQFDRIEVKRVEYRNGDVVIDAVANVNGVRVRIIFKIHIHNGRIKNLRIEYRDEEEKKQLDG 2.29

Can you share its protease stability score? I mean this sequence: DEDERLLRDHLKLFQDAVRTGDEEVLSELLDPNVRLHIGDKTIHGREIVIDILRTEMRHLGVDYDETHLHHINIQGEWVHLHTELRLKVNGQRITLWTRLYLYKIDGKWIVTQIQLH 2.3
